Tested on: p-IKKα levels in L363 (NIK translocated multiple myeloma) cells
assay.overview: Effect of compounds on p-IKKα levels in L363 cells (AlphaLISA SureFire Ultra)
Assay type: cell-based
condition: Homo sapiens, L-363; L363 cells, BAFF stimulated, MG132, 6 h; average of values; read-out: Assay 2 IC50
Item-by-item account of IC50
readout.kind: IC50

>>> obs_value("CN1CC[C@@](O)(c2cc(-c3cccc(-c4nc(C(N)=O)c(N)cc4F)c3)no2)C1=O [Example 89]")
"100 to 500 nM"
>>> obs_value("CN1CC[C@@](O)(c2cc(-c3cccc(-c4ccc5nccn5c4)c3)no2)C1=O [Example 71]")
"> 501 nM"
>>> obs_value("COc1ccc(-c2cccc(-c3cc([C@]4(O)CCN(C)C4=O)on3)c2)nc1C(N)=O [Example 87]")
"> 501 nM"
>>> obs_value("CN1CC[C@@](O)(c2cc(-c3cccc(-c4cc(N5CC(F)(F)C5)cc(C(N)=O)n4)c3)no2)C1=O [Example 100]")
"> 501 nM"
>>> obs_value("COc1ccc2c(c1)c(C(N)=O)nn2-c1cccc(-c2cc([C@]3(O)CCN(C)C3=O)on2)c1 [Example 103]")
"< 100 nM"

---

target.or.system: Recombinant Human NF-Kappab-Inducing Kinase (NIK/MAP3K14) (Homo sapiens, UniProt Q99558)
Sequence (Q99558 whole entry): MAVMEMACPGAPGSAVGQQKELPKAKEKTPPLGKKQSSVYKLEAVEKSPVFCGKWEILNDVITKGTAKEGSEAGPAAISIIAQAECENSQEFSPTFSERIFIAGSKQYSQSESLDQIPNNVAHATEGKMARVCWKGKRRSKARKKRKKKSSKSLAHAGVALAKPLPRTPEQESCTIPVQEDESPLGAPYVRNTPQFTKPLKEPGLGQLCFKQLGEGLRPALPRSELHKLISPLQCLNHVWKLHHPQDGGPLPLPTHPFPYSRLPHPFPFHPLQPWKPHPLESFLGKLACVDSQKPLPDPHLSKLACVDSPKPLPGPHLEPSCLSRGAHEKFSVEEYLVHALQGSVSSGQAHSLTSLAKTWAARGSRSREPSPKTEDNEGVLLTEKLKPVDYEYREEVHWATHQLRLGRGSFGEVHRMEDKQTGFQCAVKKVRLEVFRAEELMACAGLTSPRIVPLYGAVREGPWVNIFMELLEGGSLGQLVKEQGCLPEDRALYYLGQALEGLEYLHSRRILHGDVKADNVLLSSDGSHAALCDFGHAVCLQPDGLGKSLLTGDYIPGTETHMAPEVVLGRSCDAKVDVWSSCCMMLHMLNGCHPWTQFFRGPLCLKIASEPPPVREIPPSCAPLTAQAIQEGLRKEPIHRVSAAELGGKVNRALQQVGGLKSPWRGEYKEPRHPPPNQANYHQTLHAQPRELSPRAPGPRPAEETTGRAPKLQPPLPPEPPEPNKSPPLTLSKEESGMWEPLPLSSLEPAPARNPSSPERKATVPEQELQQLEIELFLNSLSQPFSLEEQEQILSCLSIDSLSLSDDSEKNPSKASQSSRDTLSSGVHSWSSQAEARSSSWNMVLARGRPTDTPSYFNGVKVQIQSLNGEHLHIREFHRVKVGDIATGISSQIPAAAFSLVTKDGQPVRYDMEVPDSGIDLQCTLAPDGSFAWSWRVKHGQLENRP
assay.overview: Inhibition of auto-phosphorylation of recombinant human NIK/MAP3K14 (AlphaScreen)
Format: biochemical
condition: NIK/MAP3K14 auto-phosphorylation, 5 microM ATP, 1 nM enzyme, 2 h at 25° C.; average of values; read-out: Assay 1 IC50
readout.kind: IC50

>>> obs_value("CN1CC[C@@](O)(c2cc(-c3cccc(-c4ccc5[nH]nc(N)c5n4)c3)no2)C1=O [Example 4]")
"< 100 nM"
>>> obs_value("CN1CC[C@@](O)(c2cc(-c3cccc(-c4nc(C(N)=O)c(CN)s4)c3)no2)C1=O [Example 237]")
"< 100 nM"
>>> obs_value("CN1CC[C@@](O)(c2cc(-c3cccc(-c4nc(C(N)=O)c5ccc(F)cc5n4)c3)on2)C1=O [Example 160]")
"< 100 nM"
>>> obs_value("CN1CC[C@@](O)(c2cc(-c3cccc(-c4cccc5[nH]ccc45)c3)no2)C1=O [Example 77]")
"> 501 nM"
>>> obs_value("COc1ncc(-c2cccc(-c3cc([C@]4(O)CCN(C)C4=O)on3)c2)c(C(N)=O)n1 [Example 138]")
"> 501 nM"
>>> obs_value("CN1CC[C@@](O)(c2cc(-c3cccc(-c4cc(C(F)(F)F)cc(C(N)=O)n4)c3)no2)C1=O [Example 91]")
"< 100 nM"
>>> obs_value("Cc1nc(N)c2nc(-c3cc(-c4cc([C@]5(O)CCN(C)C5=O)on4)ccn3)ccc2n1 [Example 170]")
"< 100 nM"
>>> obs_value("CN1CC[C@@](O)(c2cc(-c3cccc(-c4cccc5c(=O)[nH]cnc45)c3)no2)C1=O [Example 197]")
"> 501 nM"

---

Test system: p-IKKα levels in L363 (NIK translocated multiple myeloma) cells
assay.overview: Effect of compounds on p-IKKα levels in L363 cells (AlphaLISA SureFire Ultra)
Assay type: cell-based
condition: Homo sapiens, L-363; L363 cells, BAFF stimulated, MG132, 6 h; average of values; read-out: Assay 2 IC50
pIC50: −log10 of the molar value.
In this section we review reported pIC50 values for a set of compounds.
readout.kind: pIC50

>>> obs_value("CN1CC[C@@](O)(c2cc(-c3cccc(-c4cc(C(F)(F)F)c5cn[nH]c5n4)c3)no2)C1=O [Example 225]")
"< 6.30"
>>> obs_value("CN1CC[C@@](O)(c2cc(-c3cccc(-c4nc(C(N)=O)c(C(F)F)s4)c3)no2)C1=O [Example 222]")
"6.30 to 7.00"
>>> obs_value("COc1cc(-c2cccc(-c3cc([C@]4(O)CCN(C)C4=O)on3)c2)nc2c1cnn2C [Example 48]")
"< 6.30"
>>> obs_value("CN1CC[C@@](O)(c2cc(-c3cccc(-c4cnc5cnccn45)c3)no2)C1=O [Example 61]")
"< 6.30"
>>> obs_value("CN1CC[C@@](O)(c2cc(C3CCCN(c4ccc5ncnc(N)c5n4)C3)no2)C1=O (mixture of isomers) [Example 201]")
"< 6.30"
>>> obs_value("CN1CC[C@@](O)(c2cc(-c3cccc(-c4cc(C5CC5)cc(C(N)=O)n4)c3)no2)C1=O [Example 117]")
"6.30 to 7.00"
>>> obs_value("CN1CC[C@@](O)(c2cc(-c3cccc(-n4nc(C(N)=O)c5cc(-c6ccn(C)n6)ccc54)c3)no2)C1=O [Example 99]")
"> 7.00"
